Consider the following compounds and their measured IC50 readings.
# measurementDescription: Cytotoxicity against human HT1080 cells assessed as growth inhibition after 48 hrs by MTT assay
# Assay type: functional, cell-based
# assayContext: HT-1080, 48 h
Number in µM, nothing else.

Consider the following illustrative entries.
smilesText | IC50 [µM]
CC[C@H]1OC(=O)[C@H](C)[C@@H](O[C@H]2C[C@@](C)(OC)[C@@H](O)[C@H](C)O2)[C@H](C)[C@@H](O[C@@H]2O[C@H](C)C[C@H](N(C)CCN(C)[C@H]3C[C@@H](C)O[C@@H](O[C@@H]4[C@@H](C)[C@H](O[C@H]5C[C@@](C)(OC)[C@@H](O)[C@H](C)O5)[C@@H](C)C(=O)O[C@H](CC)[C@@](C)(O)[C@H](O)[C@@H](C)C(=O)[C@H](C)C[C@@]4(C)OC)[C@@H]3O)[C@H]2O)[C@](C)(O)C[C@@H](C)[C@H](N)[C@H](C)[C@@H](O)[C@]1(C)O | 17.8
CC[C@H]1OC(=O)[C@H](C)[C@@H](O[C@H]2C[C@@](C)(OC)[C@@H](O)[C@H](C)O2)[C@H](C)[C@@H](O[C@@H]2O[C@H](C)C[C@H](N(C)CCN(C)[C@H]3C[C@@H](C)O[C@@H](O[C@@H]4[C@@H](C)[C@H](O[C@H]5C[C@@](C)(OC)[C@@H](O)[C@H](C)O5)[C@@H](C)C(=O)O[C@H](CC)[C@@](C)(O)[C@H](O)[C@@H](C)C(=O)[C@H](C)C[C@@]4(C)OC)[C@@H]3O)[C@H]2O)[C@](C)(OC)C[C@@H](C)C(=O)[C@H](C)[C@@H](O)[C@]1(C)O | 8.1
CC[C@H]1OC(=O)[C@H](C)[C@@H](O[C@H]2C[C@@](C)(OC)[C@@H](O)[C@H](C)O2)[C@H](C)[C@@H](O[C@@H]2O[C@H](C)C[C@H](N(C)CCN(C)[C@H]3C[C@@H](C)O[C@@H](O[C@@H]4[C@@H](C)[C@H](O[C@H]5C[C@@](C)(OC)[C@@H](O)[C@H](C)O5)[C@@H](C)C(=O)O[C@H](CC)[C@@](C)(O)[C@H](O)[C@@H](C)/C(=N\O)[C@H](C)C[C@@]4(C)O)[C@@H]3O)[C@H]2O)[C@](C)(O)C[C@@H](C)/C(=N/O)[C@H](C)[C@@H](O)[C@]1(C)O | 8.6

// returns reported IC50 for input CC[C@H]1OC(=O)[C@H](C)[C@@H](O[C@H]2C[C@@](C)(OC)[C@@H](O)[C@H](C)O2)[C@H](C)[C@@H](O[C@@H]2O[C@H](C)C[C@H](N(C)CCN(C)[C@H]3C[C@@H](C)O[C@@H](O[C@@H]4[C@@H](C)[C@H](O[C@H]5C[C@@](C)(OC)[C@@H](O)[C@H](C)O5)[C@@H](C)C(=O)O[C@H](CC)[C@@](C)(O)[C@H](O)[C@@H](C)/C(=N\OCOCCOC)[C@H](C)C[C@@]4(C)O)[C@@H]3O)[C@H]2O)[C@](C)(O)C[C@@H](C)/C(=N/O)[C@H](C)[C@@H](O)[C@]1(C)O
16.2
